Target: T1, CXC chemokine receptor type 4 (CXCR4) (human, UniProt P61073 1-352)
T1 chain: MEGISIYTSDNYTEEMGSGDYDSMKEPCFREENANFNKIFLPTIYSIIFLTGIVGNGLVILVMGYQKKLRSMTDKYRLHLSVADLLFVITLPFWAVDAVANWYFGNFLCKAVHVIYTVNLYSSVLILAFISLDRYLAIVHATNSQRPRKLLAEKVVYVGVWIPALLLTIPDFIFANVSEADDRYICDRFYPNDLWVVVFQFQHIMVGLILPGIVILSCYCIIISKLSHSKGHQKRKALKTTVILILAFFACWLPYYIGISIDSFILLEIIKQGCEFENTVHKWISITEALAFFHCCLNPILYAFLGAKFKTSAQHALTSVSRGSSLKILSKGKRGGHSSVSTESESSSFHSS
Test: competition
pIC50: −log10 of the molar value. Where no end group is shown, it is not given here. The star is where a group is joined. DOTA = O=C(O)CN1CCN(CC(=O)O)CCN(CC(=O)*)CCN(CC(=O)O)CC1

binder	pIC50
IVRWSKKVPCVS [WSC02]	6.38
ILRWSRKLPCVS [JM#21]	6.45
ILRWSRKLPCVSK(DOTA) (JM#21 with DOTA; also called DOTA-K-JM#21) [JM#206]	6.69
ILRWSRKLPSVSK(DOTA) (JM#122 with DOTA; also called DOTA-K-JM#122) [JM#207]	6.68
